These measurements were taken from patent US20240124488A1.

# Test protocol: physchem
# Cond: organic solvent or mixture, Experimental solubility in CHCl3
Measurement label: solubility

*Q* Using the record for COc1cc2c3cc1OCCOc1ccc4c(c1)Cc1ccc5cc1Nc1ccc(cc1C4)OCCOc1cc(c(cc1OC)C3)Cc1cc(OC)c(cc1C2)OCCO5 , report its solubility.
*A* > 8.27 mM
